TESTED_TARGET: NAD-dependent protein deacetylase sirtuin-2 (Homo sapiens)
Sequence (Q8IXJ6 whole entry): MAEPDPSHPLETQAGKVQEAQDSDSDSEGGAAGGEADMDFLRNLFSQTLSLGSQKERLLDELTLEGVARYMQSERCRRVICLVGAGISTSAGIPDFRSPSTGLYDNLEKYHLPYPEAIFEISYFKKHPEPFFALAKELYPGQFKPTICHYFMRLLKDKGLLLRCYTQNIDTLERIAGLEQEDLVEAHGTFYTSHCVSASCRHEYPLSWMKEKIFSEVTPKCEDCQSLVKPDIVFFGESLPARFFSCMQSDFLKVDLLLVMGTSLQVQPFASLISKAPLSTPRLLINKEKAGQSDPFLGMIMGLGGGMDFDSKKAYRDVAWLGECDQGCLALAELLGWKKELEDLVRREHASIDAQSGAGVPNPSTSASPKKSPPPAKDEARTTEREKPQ
TEST_METHOD_NOTES: Inhibition of SIRT2 (unknown origin)
PROPERTY: IC50

// query So what does the record say about IC50 for CCNC(=S)c1ccc(C(=O)NCCC2CCN(c3ncnc4cc(C(N)=O)sc34)CC2)s1 ?
// result 2.7 nM
